Tested on: P. falciparum stage V gametocytes
Parameters: BacTiter-Glo ATP luminescence viability of purified stage V gametocytes in 384-well plates, per cent inhibition versus DMSO
Measurement setup: 48 h, 5 µM; inhibitor
The campaign covered roughly 13,000 compounds. About 3,200 (25%) showed an effect of 50% or more. This is one part of the list.
Mark Y for reported % Inhibition of 30% or greater; mark N for anything smaller.

CCc1cn2c3c(cc(C(=O)N[C@@H](Cc4cccc(F)c4)[C@H](O)CNC4CC4)cc13)N(C)S(=O)(=O)CC2	N
COc1ccc(NC(C)C(=O)Nc2ccc(Br)cc2)cc1S(=O)(=O)N1CCCCC1 (stereo not shown)	N
COc1ccccc1N1CCN(CCCCNC(=O)c2ccc(NC(=O)c3ccc4ccccc4c3)cc2)CC1	N
CS(=O)(=O)Cc1ccc(Nc2nccc(N3CCCc4cc(NC(=O)Nc5cccc(C(F)(F)F)c5)ccc43)n2)cc1	Y

**Query** Quick check: does CCc1cn2c3c(cc(C(=O)N[C@@H](Cc4ccccc4)[C@H](O)CNC4CC4)cc13)N(CC)S(=O)(=O)CC2 have % Inhibition greater than or equal to 30%?
**Result** Y

**Query** Quick check: does O=C(Cc1ccc[n+]([O-])c1)Nc1cccc(-c2cccc(-c3nc4cc(C(F)(F)F)ccc4[nH]3)c2)c1 have % Inhibition greater than or equal to 30%?
**Result** N

**Query** Quick check: does CCc1cn2c3c(cc(C(=O)N[C@@H](Cc4cc(F)cc(F)c4)[C@H](O)CNC4CCOCC4)cc13)N(C)S(=O)(=O)CC2 have % Inhibition greater than or equal to 30%?
**Result** N

**Query** Quick check: does CCN(CC)CCN(Cc1ccc(-c2ccc(C(F)(F)F)cc2)cc1)C(=O)Cn1c(CCc2ccccc2F)nc(=O)c2ccccc21 have % Inhibition greater than or equal to 30%?
**Result** Y

**Query** Quick check: does Cc1c(Cl)cccc1S(=O)(=O)N1CCCCC(c2ccc(C(F)(F)F)cc2)=N1 have % Inhibition greater than or equal to 30%?
**Result** N

**Query** Quick check: does CCCCOP(=O)(COc1ccc(CCN(CC(O)COc2cccc3[nH]c4ccccc4c23)CC(O)COc2cccc3[nH]c4ccccc4c23)cc1)C1CCCCC1 (stereo not shown) have % Inhibition greater than or equal to 30%?
**Result** Y

**Query** Quick check: does Cc1c(S(=O)(=O)Nc2cccc(CCN3CCCCC3CCN3CCCC3)c2)sc2ccc(Cl)cc12 (stereo not shown) have % Inhibition greater than or equal to 30%?
**Result** N

**Query** Quick check: does CCc1cn2c3c(cc(C(=O)N[C@@H](Cc4ccccc4)[C@H](O)CNC4CCCC4)cc13)N(C)S(=O)(=O)CC2 have % Inhibition greater than or equal to 30%?
**Result** Y

**Query** Quick check: does CC(C)c1cn2c3c(cc(C(=O)N[C@@H](Cc4ccccc4)[C@H](O)CNC4CCCCC4)cc13)N(C)S(=O)(=O)CC2 have % Inhibition greater than or equal to 30%?
**Result** Y

* * *

Test system: P. falciparum stage V gametocytes
Design: BacTiter-Glo ATP luminescence viability of purified stage V gametocytes in 384-well plates, per cent inhibition versus DMSO
Measurement setup: 48 h, 5 µM; inhibitor
Hit rate of the full screen: of about 13,000 compounds, about 3,200 (25%) showed an effect of 50% or more. The list shows a part of the results.
Mark met for reported % Inhibition of 10% or greater; mark not met for anything smaller.

As a guide, the following entries are already answered.
O=C(Nc1ccc(Cl)cc1)Nc1ccc(-c2ccc(-c3nc4ccccc4[nH]3)cc2)cc1 [TCMDC-133181]	not met
NC(N)=Nc1nccc(NCc2ccccc2)n1 [TCMDC-141971]	met
Oc1c(Cl)cc(Nc2nccc(Nc3ccc(Oc4ccccc4)cc3)n2)cc1Cl [TCMDC-138588]	not met
Cc1ccc(-c2cc(C(=O)Nc3ccc(S(=O)(=O)N4CC(C)OC(C)C4)cc3)[nH]n2)c(O)c1 (stereo not drawn) [TCMDC-125180]	not met
NC(=NCCc1ccc(Cl)cc1)c1ccc(Cl)c(Cl)c1 [TCMDC-137459]	not met
O=C(Nc1ccc2ccccc2n1)c1ccccc1-c1ccccc1 [TCMDC-125339]	not met
O=C(COc1cccc([N+](=O)[O-])c1)Nc1ccc(-c2nc3ccccc3[nH]2)cc1 [TCMDC-123683]	met
CC1(C)N=C(N)N=C(N)N1OCCCOc1cccc2ccccc12 [TCMDC-131626]	met
Cc1cccc2[nH]c(-c3cccc(-c4ccc(NC(=O)NCc5ccccc5)cc4)c3)nc12 [TCMDC-133158]	not met
c1ccc(Oc2ccc(Nc3nncc4ccccc34)cc2)cc1 [TCMDC-137229]	met

**Query** Quick check: does Nc1ccc(-c2cc(Cl)cc(Cl)c2)cc1-c1cc2ccccc2[nH]1 [TCMDC-139051] have % Inhibition greater than or equal to 10%?
**Result** not met

**Query** Quick check: does N#Cc1cncc(-c2nc3c(N4CCC(Cc5ccccc5)CC4)cccc3n2C2CCNC2)c1 (stereo not drawn) [TCMDC-133545] have % Inhibition greater than or equal to 10%?
**Result** not met

**Query** Quick check: does COc1cccc(CCc2nc3c(N4CCC(Cc5ccccc5)CC4)cccc3n2CC2CNCCO2)c1 (stereo not drawn) [TCMDC-133535] have % Inhibition greater than or equal to 10%?
**Result** met
